Every entry's value here was drawn from IntAct's records for PubMed 29039417.

B1: Isoform 2 of Bardet-Biedl syndrome 7 protein (Homo sapiens), Q8IWZ6-2 (parent)
chain: MDLILNRMDYLQVGVTSQKTMKLIPASRHRATQKVVIGDHDGVVMCFGMKKGEAAAVFKTLPGPKIARLELGGVINTPQEKIFIAAASEIRGFTKRGKQFLSFETNLTESIKAMHISGSDLFLSASYIYNHYCDCKDQHYYLSGDKINDVICLPVERLSRITPVLACQDRVLRVLQGSDVMYAVEVPGPPTVLALHNGNGGDSGEDLLFGTSDGKLALIQITTSKPVRKWEIQNEKKRGGILCIDSFDIVGDGVKDLLVGRDDGMVEVYSFDNANEPVLRFDQMLSESVTSIQGGCVGKDSYDEIVVSTYSGWVTGLTTEPIHKESGPGEELKINQEMQNKISSLRNELEHLQYKVLQERENYQQSSQSSKAKSAVPSFGINDKFTLNKDDASYSLILEVQTAIDNVLIQSDVPIDLLDVDKNSAVVSFSSCDSESNDNFLLATYRCQADTTRLELKIRSIEGQYGTLQAYVTPRIQPKTCQVRQYHIKPLSLHQRTHFIDHDRPMNTLTLTGQFSFAEVHSWVVFCLPEVPEKPPAGECVTFYFQNTFLDTQLESTYRKGEGVFKSDNISTISILKDVLSKEATKRKINLNISYEINEVSVKHTLKLIHPKLEYQLLLAKKVQLIDALKELQIHEGNTNFLIPEYHCILEEADHLQEEYKKQPAHLERLYG
partner: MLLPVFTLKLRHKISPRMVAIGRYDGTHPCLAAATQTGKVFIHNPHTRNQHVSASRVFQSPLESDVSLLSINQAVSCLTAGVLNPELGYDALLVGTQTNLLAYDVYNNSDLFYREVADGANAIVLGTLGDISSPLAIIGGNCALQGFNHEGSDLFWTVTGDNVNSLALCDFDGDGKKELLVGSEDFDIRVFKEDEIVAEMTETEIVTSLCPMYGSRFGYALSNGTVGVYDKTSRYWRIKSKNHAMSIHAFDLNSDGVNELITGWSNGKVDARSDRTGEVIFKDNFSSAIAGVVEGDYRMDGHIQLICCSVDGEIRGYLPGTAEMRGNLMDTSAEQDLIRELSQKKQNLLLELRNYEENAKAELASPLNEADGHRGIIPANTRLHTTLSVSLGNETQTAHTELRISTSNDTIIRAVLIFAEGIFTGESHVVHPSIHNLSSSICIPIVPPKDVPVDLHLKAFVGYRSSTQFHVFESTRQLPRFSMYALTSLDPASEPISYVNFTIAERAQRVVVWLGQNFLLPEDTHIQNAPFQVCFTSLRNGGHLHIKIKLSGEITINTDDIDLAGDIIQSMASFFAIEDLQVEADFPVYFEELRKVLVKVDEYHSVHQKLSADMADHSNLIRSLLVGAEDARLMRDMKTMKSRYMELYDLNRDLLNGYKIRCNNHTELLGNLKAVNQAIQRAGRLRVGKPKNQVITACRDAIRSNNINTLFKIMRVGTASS

Variants of: B1
Measurement conditions: with bbs2_human BBS2, Q9BXC9
Measure: effect of a mutation on the interaction

Examples with their reported effect of a mutation on the interaction follow.
{"columns": ["Mutation descriptor", "Measure", "Reported measurement"],
 "data": [
  ["T605K", "effect of a mutation on the interaction", "with no effect"],
  ["R484K", "effect of a mutation on the interaction", "with no effect"],
  ["Y471A", "effect of a mutation on the interaction", "with no effect"],
  ["E330K", "effect of a mutation on the interaction", "with no effect"],
  ["Y615A", "effect of a mutation on the interaction", "with no effect"]
]}

Q) Look at this variant and give its reported effect of a mutation on the interaction. Y394E
A) with no effect

Q) Look at this variant and give its reported effect of a mutation on the interaction. I404A
A) with no effect

Q) Look at this variant and give its reported effect of a mutation on the interaction. Q353E
A) with no effect

Q) Look at this variant and give its reported effect of a mutation on the interaction. S395K
A) with no effect
